biological target: T1, HER2ECDHis (human, UniProt P04626 23-653, biotinylated in the cross-block ELISA (sites not given)); test: ELISA; competitor 159
T1 construct: range 1-653; expressed in HEK-293F; also called soluble HER2; biotinylated HER2ECDHis
quantity kind: % binding vs no competitor (%)
Answer with a number only, understood to be in %.

Bench note: what % binding vs no competitor did HuMab 127 (antibody, V domains shown) VH: EVQLVQSGAEVKKPGESLTISCKGSGYSFSIYWIGWVRQMPGKGLEWMGIIFPGDSDIRYSPSFQGQVTISADKSISTAYLQWSSLKASDTAMYYCARQPGDWSPRHWYFDLWGRGTLVTVSS VL: VIWMTQSPSLLSASTGDRVTISCRMSQGISSYLAWYQQKPGKAPELLIYAASTLQSGVPSRFSGSGSGTDFTLTISYLQSEDFATYYCQQYYSFPLTFGGGTKVEIK show?
8

Can you check HuMab 098 (antibody, V domains shown, also called TH1014-098; PC1014-098) VH: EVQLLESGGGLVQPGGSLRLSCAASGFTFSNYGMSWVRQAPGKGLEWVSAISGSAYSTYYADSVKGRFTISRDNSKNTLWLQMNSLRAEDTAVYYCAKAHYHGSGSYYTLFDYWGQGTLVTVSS VL: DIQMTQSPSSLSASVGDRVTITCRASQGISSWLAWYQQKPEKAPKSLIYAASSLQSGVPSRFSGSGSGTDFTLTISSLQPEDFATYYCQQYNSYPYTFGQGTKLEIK next?
9

Lookup HuMab 159 (antibody, V domains shown, also called TH1014-159; PC1014-159) VH: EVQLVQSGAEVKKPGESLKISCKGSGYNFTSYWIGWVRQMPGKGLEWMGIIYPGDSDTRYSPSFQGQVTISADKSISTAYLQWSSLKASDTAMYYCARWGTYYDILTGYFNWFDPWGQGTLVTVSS VL: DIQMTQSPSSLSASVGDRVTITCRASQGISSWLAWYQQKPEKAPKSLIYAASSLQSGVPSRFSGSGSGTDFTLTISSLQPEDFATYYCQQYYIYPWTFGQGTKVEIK
6

Request: HuMab 132 (antibody, V domains shown) VH: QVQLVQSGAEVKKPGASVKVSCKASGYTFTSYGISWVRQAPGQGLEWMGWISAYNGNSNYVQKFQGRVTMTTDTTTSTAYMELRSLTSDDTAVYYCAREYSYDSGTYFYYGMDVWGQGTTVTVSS VL: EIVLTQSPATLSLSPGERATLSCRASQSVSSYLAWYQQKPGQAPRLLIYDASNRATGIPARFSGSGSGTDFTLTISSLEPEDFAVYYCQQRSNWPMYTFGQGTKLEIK
131

Moving on to HuMab 153 (antibody, V domains shown) VH: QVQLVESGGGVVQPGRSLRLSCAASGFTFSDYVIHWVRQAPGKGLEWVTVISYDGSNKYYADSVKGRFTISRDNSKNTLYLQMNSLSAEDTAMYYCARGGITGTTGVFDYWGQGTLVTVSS VL: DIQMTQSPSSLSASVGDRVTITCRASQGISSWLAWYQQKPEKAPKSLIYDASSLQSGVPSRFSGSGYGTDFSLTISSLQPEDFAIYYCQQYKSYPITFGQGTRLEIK
23
